Assay: Solubility test in water of taxane derivatives (HPLC)
Conditions: water + 0.1n hcl
REPORTED PROPERTY: solubility at 2 h (µg/mL)
Give the number; µg/mL is assumed, so skip it.

So what's the measured solubility at 2 h for this one? CC(=O)OC12COC1CC(O)C1(C)C(=O)C(OC(=O)N3CCN(C)CC3)C3=C(C)C(OC(=O)C(O)C(NC(=O)c4ccco4)c4ccccc4)CC(O)(C(OC(=O)c4ccccc4)C21)C3(C)C (centres unmarked)
2000

So what's the measured solubility at 2 h for this one? CCN1CCN(C(=O)OC2C(=O)C3(C)C(O)CC4OCC4(OC(C)=O)C3C(OC(=O)c3ccccc3)C3(O)CC(OC(=O)C(O)C(NC(=O)OC4CCCC4)c4ccccc4)C(C)=C2C3(C)C)CC1 (centres unmarked)
1840
